Please provide measured pIC50 for the entries that follow.
# assayed-system: beta-catenin (human)
# Sequence (B6V8E6 146-665 limits assumed): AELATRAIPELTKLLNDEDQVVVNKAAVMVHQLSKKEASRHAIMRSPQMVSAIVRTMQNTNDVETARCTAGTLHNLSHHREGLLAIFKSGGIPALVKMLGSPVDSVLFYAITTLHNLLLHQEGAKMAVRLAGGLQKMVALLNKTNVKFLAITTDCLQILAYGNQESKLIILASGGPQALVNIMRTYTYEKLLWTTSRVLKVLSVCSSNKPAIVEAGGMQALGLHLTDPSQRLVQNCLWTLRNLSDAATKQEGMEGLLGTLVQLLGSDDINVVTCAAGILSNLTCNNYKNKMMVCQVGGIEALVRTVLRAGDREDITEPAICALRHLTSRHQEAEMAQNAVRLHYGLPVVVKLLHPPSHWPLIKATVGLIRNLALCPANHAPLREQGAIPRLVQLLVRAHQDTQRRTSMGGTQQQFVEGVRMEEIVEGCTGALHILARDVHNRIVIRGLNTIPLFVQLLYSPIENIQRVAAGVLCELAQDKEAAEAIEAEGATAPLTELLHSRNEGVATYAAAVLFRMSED
# assay-text: fluorescence polarization
pIC50: −log10 of the molar value. *1 amine or outer side, *2 acyl side, *3 side chain or, on linkers, in order; H or OH if unused. Bridges are numbered along the chain shown (N, C = ends). Primed or numbered codes have the meaning given here. [ ]: non-standard residue; d: D form. B5(4) = 2-amino-2-(pent-4-en-1-yl)hept-6-enoic acid, stapled through each of its two olefin groups with other olefin-containing amino acid residues, O=C(C(CCCC=[*:3])(CCCC=[*:4])N[*:1])[*:2]; PyrS2″ = (S)-3-amino-1-((pent-4-en-1-yloxy)carbonyl)pyrrolidine-3-carboxylic acid (olefin stapling residue), C=CCCCOC(=O)N1CC[C@@](N[*:1])(C(=O)[*:2])C1; TriAzLys″ = azidolysine residue closed into triazole staple, O=C([C@H](CCCCn1cc([*:3])nn1)N[*:1])[*:2]; Phe(3-COOH) = N[C@@H](Cc1cccc(C(=O)O)c1)C(=O)O; 2F3MeF = Cc1cccc(C[C@H](N[*:1])C(=O)[*:2])c1F; Bta = N[C@@H](Cc1csc2ccccc12)C(=O)O; tBuAla = CC(C)(C)C[C@H](N)C(=O)O; 3Thi = N[C@@H](Cc1ccsc1)C(=O)O; PyrS2(4) = not defined here; TfeGA = not defined here; GlnR = not defined here; sAla = not defined here; PL3 = not defined here; B5 = not defined here

## Task Quick one: pIC50 of Ac-[PL3]N[tBuAla][B5]D[TfeGA]AAFK[PyrS2(4)][2F3MeF][Bta][GlnR]A-NH2 (staple 1-4; bridge 10-14; reading uncertain; also: PyrS2 tied into a staple, partner not placed) [I-113] ?
## Result > 7.30

## Task Another binder to look at: Ac-[PL3]D[tBuAla][B5]D[Phe(3-COOH)][tBuAla]AFK[PyrS2(4)][2F3MeF][Bta][GlnR]L-NH2 (staple 1-4; bridge 10-14; not fully specified (residue 10); printed as Ac-PL3-Asp-Npg-B5-Asp-3COOHF-Npg-Ala-Phe-Lys*3-PyrS2-2F3MeF-BztA-GlnR*3-Leu-NH2; reading uncertain; also: PyrS2 tied into a staple, partner not placed) [I-108]
## Result > 7.30

## Task Next up: Ac-[PL3]D[tBuAla][B5(4)]DDAAF[sAla][PyrS2″][3Thi][Bta][TriAzLys″]-NH2 (triazole 10-14; not fully specified (bridges); printed as Ac-PL3-Asp-Npg-B5-Asp-Asp-Ala-Ala-Phe-sAla*3-PyrS2-3Thi-BztA-TriAzLys*3-NH2; reading uncertain) [I-23]
## Result > 7.30
